Target: Dopamine beta hydroxylase (Homo sapiens, UniProt P09172)
Construct: 125 μl of plasma; tissue Instituto Português do Sangue Transplantação; host or cells: human plasma from healthy donors
Sequence (P09172 40-617 limits assumed): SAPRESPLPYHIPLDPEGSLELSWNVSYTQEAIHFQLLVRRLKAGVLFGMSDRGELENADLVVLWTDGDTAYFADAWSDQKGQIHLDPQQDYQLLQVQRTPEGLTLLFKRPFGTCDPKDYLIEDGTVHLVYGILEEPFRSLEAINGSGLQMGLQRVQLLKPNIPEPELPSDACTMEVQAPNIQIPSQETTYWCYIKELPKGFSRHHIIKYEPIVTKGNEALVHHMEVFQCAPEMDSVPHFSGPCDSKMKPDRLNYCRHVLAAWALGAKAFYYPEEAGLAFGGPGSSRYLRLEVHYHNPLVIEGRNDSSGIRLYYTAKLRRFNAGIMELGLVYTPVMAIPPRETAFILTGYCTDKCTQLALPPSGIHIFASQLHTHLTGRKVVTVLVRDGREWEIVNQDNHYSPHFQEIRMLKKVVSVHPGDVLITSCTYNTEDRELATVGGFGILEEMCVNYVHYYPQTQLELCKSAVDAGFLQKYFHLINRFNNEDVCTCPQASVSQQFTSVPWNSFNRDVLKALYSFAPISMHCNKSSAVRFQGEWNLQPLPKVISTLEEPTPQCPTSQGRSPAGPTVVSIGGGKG
Experiment: Dopamine beta hydroxylase activity in human plasma
Type: biochemical
Details: inhibitor 1 μM
QUANTITY: Plasma (1 μM), activity in % of control

COMPOUND | TARGET | MEASURED
NC(=O)Cc1[nH]c(=S)n2c1C[C@@H](c1c(F)ccc(Br)c1F)C2 | Dopamine beta hydroxylase (Homo sapiens, UniProt P09172) | 0.8 % of control
N#CCNC(=O)Cc1[nH]c(=S)n2c1C[C@H](c1c(F)c(F)cc(F)c1F)C2 | Dopamine beta hydroxylase (Homo sapiens, UniProt P09172) | 7.6 % of control
O=C(Cc1[nH]c(=S)n2c1[C@@H]1C[C@]1(c1cc(Br)ccc1F)C2)NC1CCOC1 (some centres unmarked) | Dopamine beta hydroxylase (Homo sapiens, UniProt P09172) | 0.9 % of control
CCOC(=O)Cc1[nH]c(=S)n2c1[C@@H]1C[C@]1(c1cc(Cl)ccc1F)C2 | Dopamine beta hydroxylase (Homo sapiens, UniProt P09172) | 3.4 % of control
CN(C)CCCNC(=O)Cc1[nH]c(=S)n2c1[C@@H]1C[C@]1(c1cc(Br)ccc1F)C2.Cl | Dopamine beta hydroxylase (Homo sapiens, UniProt P09172) | 0.9 % of control
COCCNC(=O)Cc1[nH]c(=S)n2c1C[C@@H](c1c(F)ccc(Br)c1F)C2 | Dopamine beta hydroxylase (Homo sapiens, UniProt P09172) | 1.8 % of control
CCCNC(=O)Cc1[nH]c(=S)n2c1C[C@@H](c1c(F)ccc(Br)c1F)C2 | Dopamine beta hydroxylase (Homo sapiens, UniProt P09172) | 0.5 % of control
CCCCN(C)C(=O)Cc1[nH]c(=S)n2c1C[C@@H](c1c(F)ccc(Br)c1F)C2 | Dopamine beta hydroxylase (Homo sapiens, UniProt P09172) | 0.1 % of control
O=C(O)Cc1[nH]c(=S)n2c1C[C@@H](c1cc(Br)ccc1F)C2 | Dopamine beta hydroxylase (Homo sapiens, UniProt P09172) | 12.7 % of control
N[C@@H](CNC(=O)Cc1[nH]c(=S)n2c1C[C@H](c1c(F)c(F)cc(F)c1F)C2)C(=O)O | Dopamine beta hydroxylase (Homo sapiens, UniProt P09172) | 16.7 % of control
O=C(Cc1[nH]c(=S)n2c1C[C@H](c1c(F)cccc1F)C2)NC1CCCC1 | Dopamine beta hydroxylase (Homo sapiens, UniProt P09172) | 13.1 % of control
O=C(Cc1[nH]c(=S)n2c1C[C@@H](c1c(F)c(F)cc(F)c1F)C2)N1CCCC1 | Dopamine beta hydroxylase (Homo sapiens, UniProt P09172) | 22.0 % of control
O=C(Cc1[nH]c(=S)n2c1[C@@H]1C[C@]1(c1cc(Br)ccc1F)C2)NCCc1ccccn1 | Dopamine beta hydroxylase (Homo sapiens, UniProt P09172) | 2.0 % of control
O=C(Cc1[nH]c(=S)n2c1C[C@@H](c1c(F)ccc(Br)c1F)C2)NC1CCC1 | Dopamine beta hydroxylase (Homo sapiens, UniProt P09172) | 1.7 % of control
CCOC(=O)Cc1[nH]c(=S)n2c1C[C@@H](c1cc(Br)ccc1F)C2 | Dopamine beta hydroxylase (Homo sapiens, UniProt P09172) | 10.9 % of control
NC(=O)Cc1[nH]c(=S)n2c1C[C@@H](c1c(F)ccc(Cl)c1F)C2 | Dopamine beta hydroxylase (Homo sapiens, UniProt P09172) | 5.3 % of control
CCOC(=O)Cc1[nH]c(=S)n2c1C[C@H](c1cc(Cl)ccc1F)C2 | Dopamine beta hydroxylase (Homo sapiens, UniProt P09172) | 47.2 % of control
O=C(Cc1[nH]c(=S)n2c1C[C@H](c1c(F)c(F)cc(F)c1F)C2)N1CCC2(CC1)OCCO2 | Dopamine beta hydroxylase (Homo sapiens, UniProt P09172) | 13.8 % of control
O=C(Cc1[nH]c(=S)n2c1C[C@H](c1c(F)c(F)cc(F)c1F)C2)N1CCC(O)CC1 | Dopamine beta hydroxylase (Homo sapiens, UniProt P09172) | 16.6 % of control
C[C@H](NC(=O)Cc1[nH]c(=S)n2c1C[C@H](c1c(F)c(F)cc(F)c1F)C2)C(N)=O | Dopamine beta hydroxylase (Homo sapiens, UniProt P09172) | 18.2 % of control
O=C(Cc1[nH]c(=S)n2c1C[C@H](c1c(F)c(F)cc(F)c1F)C2)N1CCCC1 | Dopamine beta hydroxylase (Homo sapiens, UniProt P09172) | 19.5 % of control
O=C(O)Cc1[nH]c(=S)n2c1C[C@H](c1c(F)ccc(Br)c1F)C2 | Dopamine beta hydroxylase (Homo sapiens, UniProt P09172) | 13.9 % of control
O=C(Cc1[nH]c(=S)n2c1C[C@H](c1c(F)ccc(Br)c1F)C2)NC1CCOC1=O (some centres unmarked) | Dopamine beta hydroxylase (Homo sapiens, UniProt P09172) | 4.4 % of control
CC(C)NC(=O)Cc1[nH]c(=S)n2c1C[C@@H](c1c(F)ccc(Cl)c1F)C2 | Dopamine beta hydroxylase (Homo sapiens, UniProt P09172) | 6.1 % of control
O=C(Cc1[nH]c(=S)n2c1C[C@@H](c1c(F)ccc(Cl)c1F)C2)N1CCCC1 | Dopamine beta hydroxylase (Homo sapiens, UniProt P09172) | 9.7 % of control
O=C(Cc1[nH]c(=S)n2c1C[C@H](c1c(F)c(F)cc(F)c1F)C2)N1CCC[C@H]1CO | Dopamine beta hydroxylase (Homo sapiens, UniProt P09172) | 11.7 % of control
O=C(O)Cc1[nH]c(=S)n2c1C[C@H](c1c(F)c(F)cc(F)c1F)C2 | Dopamine beta hydroxylase (Homo sapiens, UniProt P09172) | 11.4 % of control
O=C(Cc1[nH]c(=S)n2c1C[C@H](c1c(F)c(F)cc(F)c1F)C2)NCCO | Dopamine beta hydroxylase (Homo sapiens, UniProt P09172) | 28.9 % of control
O=C(Cc1[nH]c(=S)n2c1C[C@@H](c1c(F)ccc(Br)c1F)C2)NC1CCCC1=O (some centres unmarked) | Dopamine beta hydroxylase (Homo sapiens, UniProt P09172) | 0 % of control
CCOC(=O)CNC(=O)Cc1[nH]c(=S)n2c1C[C@H](c1c(F)c(F)cc(F)c1F)C2 | Dopamine beta hydroxylase (Homo sapiens, UniProt P09172) | 17.6 % of control
Cl.O=C(Cc1[nH]c(=S)n2c1C[C@@H](c1c(F)ccc(Cl)c1F)C2)NCc1cccnc1 | Dopamine beta hydroxylase (Homo sapiens, UniProt P09172) | 1.5 % of control
COCCNC(=O)Cc1[nH]c(=S)n2c1C[C@@H](c1c(F)ccc(Cl)c1F)C2 | Dopamine beta hydroxylase (Homo sapiens, UniProt P09172) | 6.3 % of control
